Tested on: HT29 colon
measurement_description: NCI tumour cell line growth inhibition, 48 h
measure_name: TGI

Please give TGI for each item listed below.
1. CC(C)Oc1ccc2cc(-c3nn(CC4CCNCC4)c4ncnc(N)c34)ccc2c1
2. Cc1ccccc1N1C(=O)C2C=CC(n3[nH]c(=O)n(Cc4ccccc4)c3=O)CC2C1=O (stereo not drawn)
3. CCCNC(=S)NNC(=O)CSc1nc(-c2ccccc2)c(-c2ccccc2)[nH]1
4. CCC(C)OC(=O)/C(Br)=C1/OC(=O)c2ccccc2-c2ccccc21 (stereo not drawn)
5. C=C(Cl)C(Br)(CCl)CCC(Br)C(C)(C)Cl (stereo not drawn)

Ans:
12.2 µM
> 100 µM
> 100 µM
84.5 µM
4.23 µM

Please give TGI for each item listed below.
1. O=C1/C(=C/c2ccc(Cl)cc2)CCC1CCN1CCOCC1 (stereo not drawn)
2. COc1cc(C2c3cc4c(cc3OC3(OC)COC(=O)C23)OCO4)cc(OC)c1OC(C)=O (stereo not drawn)
3. CC(=O)c1sc(Nc2nnc(-c3ccc(-c4nnc(Nc5nc(C)c(C(C)=O)s5)o4)cc3)o2)nc1C
4. Cc1[nH]c2ccccc2c1C(=O)/C=C/c1ccccc1O
5. O=C1C=CC(=O)c2cc3cc(CBr)ccc3cc21

Ans:
1: > 100 µM; 2: > 37.5 µM; 3: > 100 µM; 4: > 100 µM; 5: > 100 µM

Please give TGI for each item listed below.
1. O=C(/C=C/c1cccc2ccccc12)c1ccccc1Cl
2. COC(=O)c1ccccc1/C=C1\Cc2ccc(C)c(C)c2C1=O
3. Nc1nc(N)c2c3c(cnc2n1)CC(c1ccccc1)CC3 (stereo not drawn)
4. O=C(N[C@@H](c1ccc(Cl)c(Cl)c1)C1CNC1)c1ccc2cnccc2c1

Ans:
26.4 µM
> 100 µM
66.2 µM
12.1 µM

###

System: PC-3 prostate
measurement_description: NCI tumour cell line growth inhibition, 48 h
measure_name: TGI (µM)
Answers are plain numbers, in µM.

[
  {
    "compound": "O=C1C=CC(=O)c2cc3cc(CBr)ccc3cc21",
    "TGI (µM)": 8.9
  }
]

Please give TGI for each item listed below.
1. C#C[C@]1(O)CCC2C3CCc4cc(O)ccc4C3CC[C@@]21C (some centres not stated)
2. O=C(Cn1c[n+](CC(=O)c2ccc(-c3ccccc3)cc2)c2ccccc21)Nc1cccc2cccnc12
3. COc1cc(-c2cc(-c3cc4c([nH]c5ccccc54)c(-c4cc(OC)c(OC)c(OC)c4)n3)cc(-c3ccccc3)n2)cc(OC)c1OC
4. O=C1/C(=C/c2ccccc2S)N=C(c2ccccc2)N1c1nc2c(Cl)cc(Cl)cc2s1
5. COc1cccc2c1C(=O)c1c(O)c3c(c(O)c1C2=O)C[C@](O)(C(=O)CO)C[C@H]3O[C@@H]1C[C@@H](NC(=O)CCCCCN(C)C2(c3ccc(F)cc3)CC3CCC2C3)[C@H](O)[C@@H](C)O1 (some centres not stated)

Ans:
[42.4, 2.29, 32.3, 51.6, 2.06]

Q: Name the recorded TGI for O=C(CC1(O)C(=O)N(Cc2ccccc2)c2ccc(F)cc21)c1ccc(C(=O)NCC2CCC3(CC2)OOC2(CCCCC2)OO3)cc1 (configuration not stated) .
Ans: 3.21

###

Record form. Attribute: GI50. Fill in for each entry.
System: UO-31 renal
measurement_description: NCI tumour cell line growth inhibition, 48 h

[
  {
    "input_smiles": "C[C@@H]1CC[C@@H]2[C@@H]1[C@H](OC(=O)/C=C/c1ccccc1)[C@]1(C3CCCCC3)C[C@@H](OC(=O)CO)[C@@]2(C)O1",
    "system_name": "UO-31 renal",
    "GI50": "0.015 µM"
  },
  {
    "input_smiles": "COc1ccc(-c2nn(-c3ccc(NC(=O)c4ccc(Cl)c(Cl)c4)cc3)cc2-c2ccncc2)cc1Cl",
    "system_name": "UO-31 renal",
    "GI50": "2.07 µM"
  },
  {
    "input_smiles": "COc1cc2c3c(n(C)c(=O)c2cc1OC)-c1cc2c(cc1/C3=C\\CN)OCO2",
    "system_name": "UO-31 renal",
    "GI50": "0.621 µM"
  },
  {
    "input_smiles": "COc1ccc2[nH]cc(C3(c4c[nH]c5ccc(OC)cc45)C(=O)Nc4ccc(F)cc43)c2c1",
    "system_name": "UO-31 renal",
    "GI50": "1.51 µM"
  },
  {
    "input_smiles": "C=C(C)[C@@H]1CC[C@]2(C)[C@H](CC=C3[C@@H]4CC(C)(C)CC[C@]4(C(N)=O)CC[C@]32C)[C@@]1(C)CCC#N",
    "system_name": "UO-31 renal",
    "GI50": "2.55 µM"
  },
  {
    "input_smiles": "C=CCCCCOc1ccccc1-c1cnc(OCCCCC=C)n1C",
    "system_name": "UO-31 renal",
    "GI50": "3.09 µM"
  }
]

Please give GI50 for each item listed below.
1. O=C(N[C@@H](c1ccc(Cl)c(Cl)c1)C1CNC1)c1ccc2cnccc2c1
2. O=c1cc(-c2cccc3ccccc23)[nH]c2ncccc12
3. CCn1c2ccccc2c2cc(NC(=O)Nc3ccc([N+](=O)[O-])cc3C)ccc21

Ans:
1: 0.543 µM; 2: 0.0741 µM; 3: 2.68 µM

###

System: HOP-62 NSCLC
measurement_description: NCI tumour cell line growth inhibition, 48 h
Where a SMILES comes first, the peptide text is derived from it. The star is where a group is joined. Cbz = O=C(OCc1ccccc1)*
Record form. Attribute: TGI. Fill in for each entry.

[
  {
    "compound": "Cn1nc(C(=O)N2CC(CCl)c3c2cc(N)c2ccccc32)cc1NC(=O)Nc1cc(C(=O)N2CC(CCl)c3c2cc(N)c2ccccc32)nn1C (stereo not given)",
    "TGI": "69.3 µM"
  }
]

Please give TGI for each item listed below.
1. COc1ccc(-c2nc3ccc(-c4nc5ccc(N6CCN(c7ccccc7)CC6)cc5[nH]4)cc3[nH]2)cc1OC
2. COc1cc2c3c(n(C)c(=O)c2cc1OC)-c1cc2c(cc1/C3=C\CN)OCO2
3. C/C=C(/C)C(=O)O[C@@H]1CCN2CC[C@H](COC(=O)/C(=C/C)CO)C12 (stereo not given in full)
4. O=C(O)CCC(NC(=O)c1ccc(Nc2nc3cc(C(F)(F)F)ccc3nc2-c2ccccc2)cc1)C(=O)O (stereo not given)
5. Cc1nn(-c2ccc(Cl)cc2)c2nc3c(nc12)C(=O)c1ccccc1-3

Ans:
1. 6.58 µM
2. 17 µM
3. > 100 µM
4. > 100 µM
5. > 100 µM

Please give TGI for each item listed below.
1. COC(=O)/C=C(\C)CC(O)/C=C(\C)CCC=C(C)C (stereo not given)
2. O=C(CSc1nc2ccccc2nc1-c1ccccc1)Nc1ccc(F)cc1
3. C[C@@H]1CC[C@@H]2[C@@H]1[C@H](OC(=O)/C=C/c1ccccc1)[C@]1(C3CCCCC3)C[C@@H](OC(=O)CO)[C@@]2(C)O1
4. Cc1ccc(-n2c(N)c(C#N)c3[nH]nc(N)c3c2=O)cc1
5. O=C(O)CCC(NC(=O)OCc1ccccc1)C(=O)NC(Cc1cnc[nH]1)C(=O)O (stereo not drawn) (Cbz-Glu-His-OH; configuration not given here)

Ans:
1: > 100 µM; 2: > 100 µM; 3: 14 µM; 4: > 100 µM; 5: > 100 µM

Please give TGI for each item listed below.
1. CC(=O)OC12C=CC(=O)N1c1ccccc1C(=O)O2 (stereo not given)
2. Cn1c(=O)n(C2(C)C[Se]C2)c2ccccc21
3. Cc1nn(-c2ccccc2)c2c1C(c1ccc(Cl)cc1)NC(=S)N2 (stereo not given)
4. C=C(Cl)C(Br)(CCl)CCC(Br)C(C)(C)Cl (stereo not given)

Ans:
["> 100 µM", "> 100 µM", "80.1 µM", "7.66 µM"]

Please give TGI for each item listed below.
1. Cc1cc2oc(=N)c(C#N)c(C)c2cc1C
2. Nc1nc(N)c2c3c(cnc2n1)CC(c1ccccc1)CC3 (stereo not given)
3. Cc1ccccc1N1C(=O)C2C=CC(n3[nH]c(=O)n(Cc4ccccc4)c3=O)CC2C1=O (stereo not given)

Ans:
1: > 100 µM; 2: 76.7 µM; 3: > 100 µM

Please give TGI for each item listed below.
1. COc1c(OC[C@H](O)CN2CCOCC2)ccc2c3n(c(=NC(=O)c4cccnc4C)nc12)CCN3
2. CO/N=C(\COc1ccc2c(c1)oc(=O)c1cc(OC)ccc12)c1ccc(OC)cc1

Ans:
["> 50 µM", "> 100 µM"]

###

Tested on: HOP-92 NSCLC
measurement_description: NCI tumour cell line growth inhibition, 48 h
measure_name: TGI (µM)
One number for each entry, in µM.

[
  {
    "compound": "COC(=O)C1=C(O)C(C(=O)OC)[C@]2(O)[C@H](C(=O)OC)[C@H]1C[C@@H](c1ccc(C(F)(F)F)cc1)[C@H]2C(=O)OC (stereo not given in full)",
    "TGI [µM]": 34
  }
]

Then this compound:
Q: Name the recorded TGI for `CCCCNC(=S)Nc1nc(C(=O)NNC(=S)Nc2ccccc2)cs1` .
Ans: 38.6

// provenance: PubChem BioAssay (NCI)
